All figures here come from patent US5508273A.

Entries annotated with measured pIC50
# experimental-system: Human osteoclastic acid phosphatase (OAP) (Homo sapiens)
# Construct: purified from hairy cell leukemia spleen; from tissue; host or cells: human hairy cell leukemia spleen
# protocol-summary: Osteoclastic Acid Phosphatase (OAP) inhibition
# Format: biochemical
Just the number, please; pIC50 means minus log10 of the concentration in mol/L.

molecule	result-number
O=P(O)(O)C(Cc1ccc(Cl)cc1)c1cccc2ccccc12 (centres unmarked) [Cmpd 48]	4.68

In the following, a different molecule is considered.
Request body: readout pIC50, system Human osteoclastic acid phosphatase (OAP) (Homo sapiens), query O=C(c1ccccc1)C(C(=O)c1ccccc1)(c1cccc2ccccc12)P(=O)(O)O [Cmpd 55] . Return the value.
5.85

----------
Entries annotated with measured pIC50
# experimental-system: human prostatic tyrosyl phosphatase (Homo sapiens, UniProt P15309)
# Sequence (P15309 33-386): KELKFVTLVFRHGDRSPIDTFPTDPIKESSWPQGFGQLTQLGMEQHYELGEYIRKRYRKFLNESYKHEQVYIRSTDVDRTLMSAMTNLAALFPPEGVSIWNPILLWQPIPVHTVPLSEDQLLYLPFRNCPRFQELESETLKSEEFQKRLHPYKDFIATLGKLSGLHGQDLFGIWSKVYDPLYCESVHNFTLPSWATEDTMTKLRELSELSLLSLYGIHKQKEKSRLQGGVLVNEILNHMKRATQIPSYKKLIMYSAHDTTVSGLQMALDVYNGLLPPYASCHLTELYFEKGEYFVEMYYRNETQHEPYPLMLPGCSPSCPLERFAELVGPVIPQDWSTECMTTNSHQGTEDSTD
Just the number, please; pIC50 means minus log10 of the concentration in mol/L.

Request body: readout pIC50, system human prostatic tyrosyl phosphatase (Homo sapiens, UniProt P15309), query Cc1cccc(C(c2ccccc2)P(=O)(O)O)c1 (centres unmarked) . Return the value.
4.85

Request body: readout pIC50, system human prostatic tyrosyl phosphatase (Homo sapiens, UniProt P15309), query O=P(O)(O)C(Cc1ccc(-c2ccccc2)cc1)c1cccc(C(F)(F)F)c1 (centres unmarked) . Return the value.
4.45

Request body: readout pIC50, system human prostatic tyrosyl phosphatase (Homo sapiens, UniProt P15309), query O=P(O)(O)C(Cc1ccccc1)c1cccc2ccccc12 (centres unmarked) . Return the value.
4.17

----------
# experimental-system: Human osteoclastic acid phosphatase (OAP) (Homo sapiens, UniProt P13686)
# Construct: purified from hairy cell leukemia spleen; from tissue; host or cells: human hairy cell leukemia spleen
# Sequence (P13686 22-325): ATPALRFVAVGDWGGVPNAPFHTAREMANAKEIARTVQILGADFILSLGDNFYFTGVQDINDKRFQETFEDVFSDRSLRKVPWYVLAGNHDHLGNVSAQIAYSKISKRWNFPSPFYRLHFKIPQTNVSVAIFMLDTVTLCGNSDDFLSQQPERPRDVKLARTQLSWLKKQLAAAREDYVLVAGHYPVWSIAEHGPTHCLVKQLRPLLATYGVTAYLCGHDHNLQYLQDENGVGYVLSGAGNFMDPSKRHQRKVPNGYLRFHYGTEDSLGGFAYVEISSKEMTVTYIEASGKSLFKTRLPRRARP
# protocol-summary: Osteoclastic Acid Phosphatase (OAP) inhibition
# Type: biochemical
# condition-info: 100 uM; pH 5.0, room temperature, 20 minutes; read-out: OAPase % Inh@100 uM
Entries annotated with measured inhibition at 100 µM
Record the value in %, omitting the unit from your answer.

See these solved cases before continuing.
compound	inhibition at 100 µM, %
O=[N+]([O-])c1ccc(CC(c2cccc3ccccc23)P(=O)(O)O)cc1 (stereo not shown) [Cmpd 47]	80
O=P(O)(O)C(c1ccccc1)c1cccc(C(F)(F)F)c1 (stereo not shown) [Cmpd 16]	26
O=P(O)(O)C(c1ccc(-c2ccccc2)cc1)c1ccc(-c2ccccc2)cc1 [Cmpd 28]	100
O=P(O)(O)C(c1ccccc1)C1CCCCCC1 (stereo not shown) [Cmpd 5]	6
O=P(O)(O)C(Cc1ccc(Cl)cc1)c1cccc2ccccc12 (stereo not shown) [Cmpd 48]	94
O=P(O)(O)C(Cc1ccc(-c2ccccc2)cc1)c1cccc(C(F)(F)F)c1 (stereo not shown) [Cmpd 38]	100
O=P(O)(O)C(Cc1ccccc1)c1cccc2ccccc12 (stereo not shown) [Cmpd 45]	92
COc1ccc(CC(c2cccc3ccccc23)P(=O)(O)O)cc1 (stereo not shown) [Cmpd 44]	73
O=P(O)(O)C(CCc1ccccc1)c1ccccc1 (stereo not shown) [Cmpd 9]	30

In the following, a different compound is considered.
# inhibition at 100 µM lookup, item Cc1cccc(C(c2ccccc2)P(=O)(O)O)c1 (stereo not shown) [Cmpd 18]
4
